Exercise: for every item that follows, state its recorded ratio of amounts bound (vs GLS3000).
- EXPERIMENTAL_SYSTEM: CD3ε homodimer protein (human, UniProt P07766 23-126, limits assumed)
- Sequence (P07766 23-126 limits assumed): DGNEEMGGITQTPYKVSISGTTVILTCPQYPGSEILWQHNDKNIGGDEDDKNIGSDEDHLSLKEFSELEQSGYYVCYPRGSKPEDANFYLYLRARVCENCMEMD
- ASSAY_REMARKS: SPR, immobilized CD3ε homodimer;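 also: biacore T200 surface plasmon resonance at 25 °C, antibody variants flowed as analytes over amine-coupled CD3ε homodimer on a CM4 chip, variant binding amount divided by that of GLS3000 antibody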
Enter a number only.

Give the reported value of ratio of amounts bound (vs GLS3000) for this record: GLS3000 Y96H (antibody, name in Kabat numbering, V domains shown, one-arm format as m2) VH: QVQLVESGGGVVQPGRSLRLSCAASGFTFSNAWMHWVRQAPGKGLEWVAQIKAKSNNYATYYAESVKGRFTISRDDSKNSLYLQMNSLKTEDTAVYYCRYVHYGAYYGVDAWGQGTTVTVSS VL: DIVMTQSPLSLPVTPGEPASISCRSSQSLVHSNRNTYLHWYQQKPGQAPRLLIYKVSNRFSGVPDRFSGSGSGTDFTLKISRVEAEDVGVYYCGQGTQVPHTFGQGTKLEIK 0.23

Give the reported value of ratio of amounts bound (vs GLS3000) for this record: GLS3000 N30L (antibody, name in Kabat numbering, V domains shown, one-arm format as m2) VH: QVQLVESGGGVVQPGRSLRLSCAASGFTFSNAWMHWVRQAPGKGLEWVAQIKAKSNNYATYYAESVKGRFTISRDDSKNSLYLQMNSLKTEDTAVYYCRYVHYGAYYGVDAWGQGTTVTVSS VL: DIVMTQSPLSLPVTPGEPASISCRSSQSLVHSNRLTYLHWYQQKPGQAPRLLIYKVSNRFSGVPDRFSGSGSGTDFTLKISRVEAEDVGVYYCGQGTQVPYTFGQGTKLEIK 0.7

Give the reported value of ratio of amounts bound (vs GLS3000) for this record: GLS3000 G91T (antibody, name in Kabat numbering, V domains shown, one-arm format as m2) VH: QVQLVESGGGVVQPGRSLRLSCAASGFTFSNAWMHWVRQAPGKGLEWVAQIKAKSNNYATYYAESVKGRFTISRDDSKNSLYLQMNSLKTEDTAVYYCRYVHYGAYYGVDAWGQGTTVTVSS VL: DIVMTQSPLSLPVTPGEPASISCRSSQSLVHSNRNTYLHWYQQKPGQAPRLLIYKVSNRFSGVPDRFSGSGSGTDFTLKISRVEAEDVGVYYCGQTTQVPYTFGQGTKLEIK 0.26
